Reference source: patent US12187746B2

- System: P-Akt (S473)
- protocol: Cell based AlphaLISA assay, inhibition of P-Akt (S473) in MDA-MB-468 cells
- experimental.conditions: Homo sapiens, 4 h, 0.017-1,000 nM, two to four hours at 37° C., AlphaLisa SureFire Ultra, read-out: pIC50 for Inhibition of mTORC1 and mTORC2 Substrate Phosphorylation, p-AKT1/2/3-(S473) (converted)
endpoint.name: IC50

[[record]]
compound_string = "COc1ccc(-c2ccc3ncc4c(c3c2)n(-c2ccc(N3CCN(c5ncc(CNC(=O)CCOCCOCCOCCOCCOCCOCCNC(=O)CON=C6[C@H](C)C[C@H](C)/C=C/C=C/C=C(\\C)[C@@H](OC)C[C@@H]7CC[C@@H](C)[C@@](O)(O7)C(=O)C(=O)N7CCCC[C@H]7C(=O)O[C@H]([C@H](C)C[C@@H]7CC[C@@H](O)[C@H](OC)C7)C[C@@H](O)[C@H](C)/C=C(\\C)[C@@H](O)[C@H]6OC)cn5)CC3)c(C(F)(F)F)c2)c(=O)n4C)cn1"
endpoint_name = "IC50"
value_reported = "0.0316 to 1 µM"

